- assayed.system: 5HT1D
- protocol.summary: Inhibition of 3H-serotonin binding to 5HT1D receptor
- details: read-out: Inhibition of Radioligand Binding to 5HT Receptor, 1D (IC50), rat brain membranes, 25° C., 30 min, pH 7.4
measurement.kind: IC50
Please provide the amount together with its unit, number first.

What value of measured IC50 is listed for NCC[C@@H](Oc1ccc(C(F)(F)F)cc1)c1ccccc1 [(R)-Norfluoxetine] ?
101 µM

* * *

- assayed.system: 5HT3 receptors (Rattus norvegicus, UniProt P35563)
- Construct: brain tissues from male Sprague-Dawley rats was homogenized; from tissue; host or cells: brain of male Sprague-Dawley rats, crude synaptosomal membranes
- Sequence (P35563 24-483): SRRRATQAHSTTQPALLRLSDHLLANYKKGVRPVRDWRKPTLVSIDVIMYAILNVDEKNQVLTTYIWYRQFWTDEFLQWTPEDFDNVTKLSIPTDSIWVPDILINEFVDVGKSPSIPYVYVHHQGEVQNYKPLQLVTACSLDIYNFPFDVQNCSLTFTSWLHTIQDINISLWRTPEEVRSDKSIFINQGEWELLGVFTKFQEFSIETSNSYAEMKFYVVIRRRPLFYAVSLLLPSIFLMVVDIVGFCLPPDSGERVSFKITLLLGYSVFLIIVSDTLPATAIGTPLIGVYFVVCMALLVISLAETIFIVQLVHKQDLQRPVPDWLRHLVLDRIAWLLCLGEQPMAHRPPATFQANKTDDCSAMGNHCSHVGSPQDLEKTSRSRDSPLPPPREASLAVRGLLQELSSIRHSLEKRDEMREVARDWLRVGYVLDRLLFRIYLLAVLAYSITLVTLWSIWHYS
- protocol.summary: Inhibition of 3H-1-methyl-N-(8-methyl-8-azabicyclo[3.2.1]oct-3-yl)-1H-indazaole-3-carboxamide binding to 5HT3 receptors
- Design: species or system male Sprague-Dawley)
- details: rat brain membranes, 25° C., 30 min, pH 7.4
measurement.kind: pIC50
The scale used: pIC50 is minus the common logarithm of the concentration in molar units.

# input compound: NCC[C@@H](Oc1ccc(C(F)(F)F)cc1)c1ccccc1 [(R)-Norfluoxetine] ; wanted: its pIC50
4.92

* * *

Sequence of the target: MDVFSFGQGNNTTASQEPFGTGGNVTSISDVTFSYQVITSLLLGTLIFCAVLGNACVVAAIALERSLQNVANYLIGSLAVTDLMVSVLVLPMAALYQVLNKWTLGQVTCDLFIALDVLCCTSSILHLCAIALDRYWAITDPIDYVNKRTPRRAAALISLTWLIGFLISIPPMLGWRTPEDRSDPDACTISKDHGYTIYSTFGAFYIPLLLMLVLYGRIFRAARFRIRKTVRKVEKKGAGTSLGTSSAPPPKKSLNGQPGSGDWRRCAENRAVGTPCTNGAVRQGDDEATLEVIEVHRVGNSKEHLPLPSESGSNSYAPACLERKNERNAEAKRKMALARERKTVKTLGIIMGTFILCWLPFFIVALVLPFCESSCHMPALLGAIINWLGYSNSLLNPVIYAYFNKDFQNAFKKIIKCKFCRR
measurement.kind: pIC50
Keep in mind that pIC50 stands for -log10 of concentration in molar terms.

# get_value(readout='pIC50', item= NCC[C@@H](Oc1ccc(C(F)(F)F)cc1)c1ccccc1 [(R)-Norfluoxetine] )
4.66

* * *

- assayed.system: 5HT1B (Rattus norvegicus)
- Sequence (P28564 whole entry): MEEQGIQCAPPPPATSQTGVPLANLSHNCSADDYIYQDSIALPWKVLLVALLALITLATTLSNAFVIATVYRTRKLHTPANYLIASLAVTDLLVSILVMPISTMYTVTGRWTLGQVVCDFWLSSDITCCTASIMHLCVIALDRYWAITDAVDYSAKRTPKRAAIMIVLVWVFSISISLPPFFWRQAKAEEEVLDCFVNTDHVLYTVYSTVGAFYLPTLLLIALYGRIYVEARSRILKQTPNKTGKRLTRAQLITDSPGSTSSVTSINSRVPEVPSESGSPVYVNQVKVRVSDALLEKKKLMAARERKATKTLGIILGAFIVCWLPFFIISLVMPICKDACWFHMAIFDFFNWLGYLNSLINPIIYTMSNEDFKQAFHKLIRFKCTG
measurement.kind: pIC50
Just so you know, pIC50 here is -log10 of the concentration in molar units; reply with that number alone.

API: value(readout= pIC50, system= 5HT1B (Rattus norvegicus), query= NCC[C@@H](Oc1ccc(C(F)(F)F)cc1)c1ccccc1 [(R)-Norfluoxetine] )
4.62
